# target under test: human α1D‐adrenoceptor (full length) (Homo sapiens, UniProt P25100)
# Construct: human α1D‐adrenoceptor (full length) were used; expressed in transfected cells; host or cells: CHO-K1
# Sequence (P25100 whole entry): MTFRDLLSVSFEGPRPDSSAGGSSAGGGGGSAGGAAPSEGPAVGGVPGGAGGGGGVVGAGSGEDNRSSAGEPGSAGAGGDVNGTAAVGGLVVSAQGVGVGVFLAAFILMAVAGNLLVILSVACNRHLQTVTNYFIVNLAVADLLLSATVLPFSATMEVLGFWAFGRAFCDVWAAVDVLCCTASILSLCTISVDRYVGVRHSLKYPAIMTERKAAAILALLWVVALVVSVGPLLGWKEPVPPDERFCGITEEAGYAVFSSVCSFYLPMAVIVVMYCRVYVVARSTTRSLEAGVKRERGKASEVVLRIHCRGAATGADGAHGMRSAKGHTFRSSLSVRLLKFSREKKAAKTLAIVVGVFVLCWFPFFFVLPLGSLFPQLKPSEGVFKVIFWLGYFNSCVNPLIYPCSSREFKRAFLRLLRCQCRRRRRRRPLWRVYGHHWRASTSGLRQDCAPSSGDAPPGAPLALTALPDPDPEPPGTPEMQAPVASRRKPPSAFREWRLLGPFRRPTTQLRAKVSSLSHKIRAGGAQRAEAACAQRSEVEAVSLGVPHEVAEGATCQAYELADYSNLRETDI
# experiment: ^3H‐prazosin whole‐cell radioligand binding, CHO‐α1D cells
# condition: CHO‐α1D cells; given as log KD (negative); mean ± SEM; 'early plateau' = specific binding not fully inhibited
measured property: Kd (µM)
Quick note: give the figure in µM, leave out the unit.

1. Cc1cccc(Cc2c[nH]cn2)c1C [Detomidine]
0.977
2. CC(CCc1ccc(O)cc1)NCCc1ccc(O)c(O)c1 (stereo not shown) [Dobutamine]
4.37
3. C[C@H](N)[C@H](O)c1cccc(O)c1 [Metaraminol]
56.2
4. C1COC(NC(C2CC2)C2CC2)=N1 [Rilmenidine]
18.6
5. c1ccc(C2CC2)c(OCC2=NCCN2)c1 [Cirazoline]
2.95

Request: # query: Kd | item N=C(N)NC(=O)Cc1c(Cl)cccc1Cl [Guanfacine] | system: human α1D‐adrenoceptor (full length) (Homo sapiens, UniProt P25100)
Response: 11.7

Request: # query: Kd | item CC(C)(C)NCC(O)c1ccc(O)c(CO)c1 (stereo not shown) [Salbutamol] | system: human α1D‐adrenoceptor (full length) (Homo sapiens, UniProt P25100)
Response: 135

Request: # query: Kd | item COc1nc(C)nc(Cl)c1N=C1NCCN1 [Moxonidine] | system: human α1D‐adrenoceptor (full length) (Homo sapiens, UniProt P25100)
Response: 110

Request: # query: Kd | item OCc1cc(C(O)CNCCCCCCOCCCCc2ccccc2)ccc1O (stereo not shown) [Salmeterol] | system: human α1D‐adrenoceptor (full length) (Homo sapiens, UniProt P25100)
Response: 1.7

Request: # query: Kd | item CNC[C@H](O)c1cccc(O)c1 [R‐phenylephrine] | system: human α1D‐adrenoceptor (full length) (Homo sapiens, UniProt P25100)
Response: 22.4

###

# target under test: human α1A‐adrenoceptor (Homo sapiens, UniProt P35348)
# Construct: expressed in transfected cells; host or cells: CHO-K1
# Sequence (P35348 whole entry): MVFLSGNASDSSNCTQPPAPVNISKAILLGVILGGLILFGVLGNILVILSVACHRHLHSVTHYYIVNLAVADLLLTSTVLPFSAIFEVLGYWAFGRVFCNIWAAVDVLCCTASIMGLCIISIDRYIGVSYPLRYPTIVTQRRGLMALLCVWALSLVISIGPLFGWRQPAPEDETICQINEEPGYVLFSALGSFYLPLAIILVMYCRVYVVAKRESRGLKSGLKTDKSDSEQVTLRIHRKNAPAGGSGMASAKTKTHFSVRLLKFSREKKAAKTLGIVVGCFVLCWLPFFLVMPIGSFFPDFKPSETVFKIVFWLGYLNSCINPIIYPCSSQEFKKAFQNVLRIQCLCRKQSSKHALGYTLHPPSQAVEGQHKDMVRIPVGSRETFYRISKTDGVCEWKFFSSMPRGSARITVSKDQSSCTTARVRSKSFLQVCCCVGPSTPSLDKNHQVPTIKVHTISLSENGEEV
# experiment: ^3H‐cAMP accumulation in the presence of 10 μM forskolin, CHO‐α1A cells
# Assay type: cell-based
# condition: CHO‐α1A cells; 10 μM forskolin; read-out: cAMP accumulation (in presence of forskolin) Log EC50 (converted)
Binary call on EC50 with cut-off 100 nM: strictly below means Met, and equality or higher means Not met.

1) N=C(N)NC(=O)Cc1c(Cl)cccc1Cl [Guanfacine]
Not met

Request: Given Clc1ccc2nsnc2c1NC1=NCCN1 [Tizanidine] , is recorded EC50 strictly lower than 100 nM?
Response: Not met

Request: Given CCNCC(O)c1cccc(O)c1 (centres unmarked) [Etilefrine] , is recorded EC50 strictly lower than 100 nM?
Response: Not met

Request: Given Brc1c(NC2=NCCN2)ccc2nccnc12 [UK14304] , is recorded EC50 strictly lower than 100 nM?
Response: Not met

Request: Given c1ccc2c(CC3=NCCN3)cccc2c1 [Naphazoline] , is recorded EC50 strictly lower than 100 nM?
Response: Met

Request: Given c1ccc(C2CC2)c(OCC2=NCCN2)c1 [Cirazoline] , is recorded EC50 strictly lower than 100 nM?
Response: Met

Request: Given Brc1c(NC2=NCCN2)ccc2nccnc12 [Brimonidine] , is recorded EC50 strictly lower than 100 nM?
Response: Not met

Request: Given CCC1(c2cnc[nH]2)Cc2ccccc2C1 [Atipamezole] , is recorded EC50 strictly lower than 100 nM?
Response: Not met
